Tested on: NCI-H460
Experiment: Cytotoxicity against human NCI-H460 cells assessed as cell viability for 24 hrs by MTT assay
Assay type: functional, cell-based
Conditions: NCI-H460, 24 h
propertyName: IC50 (µM)
Quick note: give the figure in µM, leave out the unit.

The molecule listed as "COc1cc(O)cc(CCc2ccc(O)c(OC)c2)c1" has a reported IC50 of 248

src = ChEMBL document CHEMBL3297714
